# protocol_description: in vitro
# Format: cell-based
# condition_description: concentration indicating 50% survival, 24 h, MTS; read-out: LC50
Non-standard residues stand in square brackets, D forms with d. Residues, ends and D or L forms follow the SMILES beside them. Nspe = C[C@H](NCC(=O)O)c1ccccc1; Nlys = NCCCCNCC(=O)O
Collected CC50 at 24 h values appear next to each entry.
quantity_name: CC50 at 24 h (µM)

compound	reading_unit	numeric_result
C[C@@H](c1ccccc1)N(CC(=O)N(CCCCN)CC(=O)N(CC(=O)N(CC(=O)N(CCCCN)CC(=O)N(CC(=O)N(CC(=O)N(CCCCN)CC(=O)N(CC(=O)N(CC(=O)N(CCCCN)CC(N)=O)[C@@H](C)c1ccccc1)[C@@H](C)c1ccccc1)[C@@H](C)c1ccccc1)[C@@H](C)c1ccccc1)[C@@H](C)c1ccccc1)[C@@H](C)c1ccccc1)C(=O)CN(C(=O)CNCCCCN)[C@@H](C)c1ccccc1 [compound 22] (H-[Nlys][Nspe][Nspe][Nlys][Nspe][Nspe][Nlys][Nspe][Nspe][Nlys][Nspe][Nspe][Nlys]-NH2)	µM	10
C[C@@H](c1ccccc1)N(CC(N)=O)C(=O)CN(C(=O)CN(CCCCN)C(=O)CN(C(=O)CN(C(=O)CN(CCCCN)C(=O)CN(C(=O)CN(C(=O)CN(CCCCN)C(=O)CN(C(=O)CN(C(=O)CNCCCCN)[C@@H](C)c1ccccc1)[C@@H](C)c1ccccc1)[C@@H](C)c1ccccc1)[C@@H](C)c1ccccc1)[C@@H](C)c1ccccc1)[C@@H](C)c1ccccc1)[C@@H](C)c1ccccc1 [compound 1] (H-[Nlys][Nspe][Nspe][Nlys][Nspe][Nspe][Nlys][Nspe][Nspe][Nlys][Nspe][Nspe]-NH2)	µM	8
